system: L1210; assay: In vitro for cytotoxicity against murine leukemia cells (L1210); format: functional, cell-based; details: Mus musculus
pIC50: −log10 of the molar value.

| Structure smiles string | pIC50 |
| --- | --- |
| CNc1cc(NS(C)(=O)=O)ccc1Nc1c2ccccc2nc2cc(Br)ccc12 | 7.42 |
| CNc1cc(NS(C)(=O)=O)ccc1Nc1c2ccccc2nc2ccc(C)cc12 | 6.26 |
| CNc1cc(NS(C)(=O)=O)ccc1Nc1c2ccccc2nc2c1ccc1ccccc12 | 6.72 |
| CNc1cc(NS(C)(=O)=O)ccc1Nc1c2ccc(Cl)cc2nc2c(OC)cccc12 | 6.92 |
| CNc1cc(NS(C)(=O)=O)ccc1Nc1c2ccccc2nc2ccc(OC)cc12 | 5.92 |
| CNC(=O)c1cccc2c(Nc3ccc(NS(C)(=O)=O)cc3NC)c3cccc(C)c3nc12 | 7.09 |
| CNc1cc(NS(C)(=O)=O)ccc1Nc1c2ccccc2nc2cc(NC(=O)OC)ccc12 | 7.12 |
| CNc1cc(NS(C)(=O)=O)ccc1Nc1c2ccc(F)cc2nc2c(OC)cccc12 | 6.70 |
| CNc1cc(NS(C)(=O)=O)ccc1Nc1c2ccccc2nc2cc(OC)ccc12 | 7.46 |

====

test system: poly[d(A-T)]; test: Binding constant relative to amsacrine (Δlog K) for DNA binding by ethidium bromide displacement; conditions: Bos taurus
Parameter: Δlog K. Scope: all listed entries.
Assay readout: Δlog K

| Structure smiles string | Assay system | Quantitative readout |
| --- | --- | --- |
| CNc1cc(NS(C)(=O)=O)ccc1Nc1c2ccccc2nc2c(C)ccc(C)c12 | poly[d(A-T)] | 6.18 |
| COc1cc(NS(C)(=O)=O)ccc1Nc1c2ccccc2nc2cc(I)ccc12 | poly[d(A-T)] | 0.78 |
| CNc1cc(NS(C)(=O)=O)ccc1Nc1c2ccccc2nc2cc(Br)ccc12 | poly[d(A-T)] | 6.99 |
| CNc1cc(NS(C)(=O)=O)ccc1Nc1c2ccccc2nc2cc(I)ccc12 | poly[d(A-T)] | 6.42 |
| CNc1cc(NS(C)(=O)=O)ccc1Nc1c2ccccc2nc2c(C(N)=O)cccc12 | poly[d(A-T)] | 6.28 |
| COc1cc(NS(C)(=O)=O)ccc1Nc1c2ccccc2nc2c(C)cccc12 | poly[d(A-T)] | 0.46 |
| COc1cc(NS(C)(=O)=O)ccc1Nc1c2ccccc2nc2c(Cl)cccc12 | poly[d(A-T)] | 0.19 |
| COc1cc(NS(C)(=O)=O)ccc1Nc1c2ccccc2nc2cc(Cl)ccc12 | poly[d(A-T)] | 0.49 |
| COc1cc(NS(C)(=O)=O)ccc1Nc1c2ccccc2nc2cc(Br)ccc12 | poly[d(A-T)] | 0.72 |
| CNc1cc(NS(C)(=O)=O)ccc1Nc1c2ccccc2nc2ccc(C)cc12 | poly[d(A-T)] | 5.89 |
| CNc1cc(NS(C)(=O)=O)ccc1Nc1c2ccccc2nc2c(Br)cccc12 | poly[d(A-T)] | 6.37 |
| CNc1cc(NS(C)(=O)=O)ccc1Nc1c2ccccc2nc2cc(NC(=O)OC)ccc12 | poly[d(A-T)] | 7.21 |
| CNc1cc(NS(C)(=O)=O)ccc1Nc1c2ccccc2nc2ccc(OC)cc12 | poly[d(A-T)] | 5.8 |
| CNc1cc(NS(C)(=O)=O)ccc1Nc1c2ccc(Br)cc2nc2c(C)cccc12 | poly[d(A-T)] | 7.27 |
| COc1ccc2[nH]c3ccccc3c(=Nc3ccc(NS(C)(=O)=O)cc3OC)c2c1 | poly[d(A-T)] | -0.08 |
| COc1cc(NS(C)(=O)=O)ccc1Nc1c2ccccc2nc2cc(C)ccc12 | poly[d(A-T)] | 0.38 |
| COc1ccc2c(Nc3ccc(NS(C)(=O)=O)cc3OC)c3ccccc3nc2c1 | poly[d(A-T)] | 0.26 |
| CNC(=O)c1cccc2c(Nc3ccc(NS(C)(=O)=O)cc3OC)c3ccccc3nc12 | poly[d(A-T)] | -0.03 |
| CNC(=O)c1cccc2c(Nc3ccc(NS(C)(=O)=O)cc3NC)c3cccc(OC)c3nc12 | poly[d(A-T)] | 6.92 |
| COc1cc(NS(C)(=O)=O)ccc1Nc1c2ccccc2nc2ccc(Cl)cc12 | poly[d(A-T)] | -0.08 |
| CNC(=O)c1cccc2c(Nc3ccc(NS(C)(=O)=O)cc3NC)c3ccc(Cl)cc3nc12 | poly[d(A-T)] | 6.79 |

These entries and their values trace back to ChEMBL document CHEMBL1123442.
